Values were extracted from ChEMBL document CHEMBL1201862.

- Tested on: SNB-19
- assay method text: NCI tumour cell line growth inhibition, 48 h
Calls of active or inactive are those of the source. Cut-off read from the data, not from the text of the source: active = GI50 up to about 1.1 µM and inactive = higher.
compounds and their reported GI50
reported metric: GI50

compound | test system | observed result
COc1cc(CCN(C)C)cc(OC)c1OC | SNB-19 | > 100 µM (inactive)
COC(=O)N1C=CC2=C(C)C3Nc4ccccc4C3C(C)=C2C1 (stereo not given) | SNB-19 | 2.97 µM (inactive)
O=C1CC(C(=O)N2CCCCC2)n2c(=O)n(-c3ccccc3)c(=O)n2C1 (stereo not given) | SNB-19 | > 100 µM (inactive)
Cc1c(C)c2c(c(N)c1C#N)C(=O)N(Cc1ccc(S(N)(=O)=O)cc1)C2=O | SNB-19 | 5.51 µM (inactive)
Cc1ccccc1NC(=S)N/N=C1\C(=O)Nc2ccccc21 | SNB-19 | > 100 µM (inactive)
O=C1CC(=O)c2c(N3CCCC3)sc(N3CCCC3)c21 | SNB-19 | > 100 µM (inactive)
CC(=O)OCC1OC(O[C@H]2C=C[C@@H](C(=O)OCc3ccccc3)n3c(=O)n(-c4ccccc4)c(=O)n32)C(OC(C)=O)C(OC(C)=O)C1OC(C)=O (stereo not given in full) | SNB-19 | 15.7 µM (inactive)
c1ccc2c(CN3CCN(Cc4c[nH]c5ccccc45)CC3)c[nH]c2c1 | SNB-19 | 21.6 µM (inactive)
O=c1ccn(C2OC(CO)C(P(=O)(O)O)C2O)c(=O)[nH]1 (stereo not given) | SNB-19 | > 100 µM (inactive)
CSc1nc(-c2cc3c(c(SC)n2)CCCCC3)cc2c1CCCCC2 | SNB-19 | > 100 µM (inactive)

====

- System: A549
- assay method text: NCI tumour cell line growth inhibition, 48 h
Calls of active or inactive are those of the source. No stated cut-off is given here; in the data, active = GI50 up to about 1.1 µM and inactive = higher.
Listed next: entries and their corresponding GI50.

compound | test system | GI50
COC(=O)N1C=CC2=C(C)C3Nc4ccccc4C3C(C)=C2C1 (stereo not drawn) | A549 | 1.69 µM (inactive)
O=C(Oc1ccc(S(=O)(=O)F)cc1F)c1ccccc1Cl | A549 | 35.5 µM (inactive)
Nc1ccc(C(=O)NN2C(=O)C(Cl)C2c2ccc(O)cc2)cc1 (stereo not drawn) | A549 | 56.9 µM (inactive)
C=C(Cl)C(Cl)(CBr)CCC(Cl)C(C)C (stereo not drawn) | A549 | 8.53 µM (inactive)
CC(C)(C)N(Cc1ccc2c(c1)OCO2)C(=O)/C=C\[S+]([O-])c1ccccc1 (stereo not drawn) | A549 | 4.6 µM (inactive)
CCN(CC)CCCNc1nccc2c(C)c3[nH]c4ccncc4c(=O)c3cc12 | A549 | 3.01 µM (inactive)
CC(C)N(C(C)C)S(=O)(=O)CC12CCC(C/C1=N\O)C2 (stereo not drawn) | A549 | > 100 µM (inactive)
COc1ccc(S(=O)(=O)c2ccccc2[N+](=O)[O-])cc1 | A549 | > 100 µM (inactive)

====

- Test system: NCI-H23
- assay method text: NCI tumour cell line growth inhibition, 48 h
Active and inactive are the calls of the source. Cut-off read from the data, not from the text of the source: active = GI50 up to about 1.1 µM and inactive = higher.
Classes used: class 1 (active), class 0 (inactive)

compound | classification
O=CC1=C(C(=O)OC(c2ccccc2)c2ccccc2)N2C(=O)[C@@H](NC(=O)Cc3cccs3)[C@H]2SC1 | class 0
COC(=O)C1=C(C(=O)OC)SC(=C(/N=N/c2ccccc2)c2ccccc2)S1 | class 0
COc1ccc2cc(C(C)C(=O)N3C(=O)OCC3(C)C)ccc2c1 (stereo not given) | class 0
NCCC(=O)N[C@H](Cc1cc(O)c(O)c(SCC(NC(=O)CC[C@H](N)C(=O)O)C(=O)NCC(=O)O)c1)C(=O)O (stereo not given in full) | class 0
C/C(=N\Nc1nc2ccccc2[nH]1)c1cc2ccccc2cn1 | class 1
COc1ccc(NC(=O)CSc2nnc(Cc3ccccc3)o2)cc1 | class 0
CC[C@]1(Cc2ccc(OC)c(OC)c2)C=[N+]([O-])O[C@H](OCc2ccccc2)[C@@H]1OC(C)=O | class 0
Cc1cccc(NC(=O)CC(=O)N2N=C(N(CCC#N)c3ccc(Cl)cc3)CC2c2ccccc2)c1 (stereo not given) | class 0
Nc1ccc2nc3ccc(N)cc3[n+](-c3ccccc3)c2c1 | class 0
CC1(C)OC(C(N)=O)=C(C(N)=O)O1 | class 0

====

- Tested on: SK-OV-3
- assay method text: NCI tumour cell line growth inhibition, 48 h
Active and inactive are the calls of the source. No stated cut-off is given here; in the data, active = GI50 up to about 1.1 µM and inactive = higher.
reported metric: GI50

compound | test system | reported metric | observed result
COC(=O)/C(C#N)=C1\NC(=O)CC(c2ccccc2)C1C#N (stereo unspecified) | SK-OV-3 | GI50 | > 100 µM (inactive)
Nc1nc(N)c2nc(CNc3ccc(C(=O)O)cc3)[nH]c2n1 | SK-OV-3 | GI50 | > 100 µM (inactive)
COc1ccc2c(c1)[n+]([O-])c(C(=O)CC(=O)C(=O)Nc1cccc(C)c1C)c(C)[n+]2[O-] | SK-OV-3 | GI50 | > 100 µM (inactive)
c1ccc2c(CN3CCN(Cc4c[nH]c5ccccc45)CC3)c[nH]c2c1 | SK-OV-3 | GI50 | 21.4 µM (inactive)
Cc1c(C)c2c(c(N)c1C#N)C(=O)N(Cc1ccc(S(N)(=O)=O)cc1)C2=O | SK-OV-3 | GI50 | 4.43 µM (inactive)
CC(C)(C)c1ccc(O)c(C[N+](C)(C)C)c1 | SK-OV-3 | GI50 | > 100 µM (inactive)
O=C1CC(c2ccccc2Cl)Oc2ccccc21 (stereo unspecified) | SK-OV-3 | GI50 | > 100 µM (inactive)
Cc1cc(Cl)ccc1NC(=O)/C(Cc1nc2ccc(C(=O)c3ccccc3)cc2nc1O)=N/NC(=O)c1ccncc1 | SK-OV-3 | GI50 | > 100 µM (inactive)
CC(C)OP(=O)(OC(C)C)/C(C#N)=C/c1ccco1 | SK-OV-3 | GI50 | > 100 µM (inactive)
COC(=O)N1C=CC2=C(C)C3Nc4ccccc4C3C(C)=C2C1 (stereo unspecified) | SK-OV-3 | GI50 | 1.86 µM (inactive)
O=C1/C(=C/c2ccc([N+](=O)[O-])cc2)CCCc2ccccc21 | SK-OV-3 | GI50 | > 100 µM (inactive)

====

- Tested on: HOP-62
- assay method text: NCI tumour cell line growth inhibition, 48 h
Active and inactive are the calls of the source. Cut-off read from the data, not from the text of the source: active = GI50 up to about 1.1 µM and inactive = higher.
Classes used: active, inactive

compound | classification
COc1cccc(-c2nc(O)c3ccccc3n2)c1 | inactive
NC(=S)N/N=C1\NC(=O)/C(=C/c2ccc3c(c2)OCO3)S1 | inactive
COc1ccc2cc(C(C)C(=O)N3C(=O)OCC3(C)C)ccc2c1 (stereo unspecified) | inactive
O=C(N/N=C(COc1ccccc1Cl)\N=C\c1cccnc1)c1ccncc1 | inactive
COc1ccc2c3c1OC1C(OC)(OC)C=C[C@@]4(Br)[C@@H](C2)N(CC2CC2)CC[C@]314 (stereo partly specified) | inactive
COc1ccc(S(=O)(=O)c2ccccc2[N+](=O)[O-])cc1 | inactive
COc1ccc(/C=C2\C[C@H]3[C@@H]4CC=C5C[C@@H](OC(C)=O)CC[C@]5(C)[C@H]4CC[C@]3(C)C2=O)cc1OC | active
Cc1ccc(S(=O)OC23CC4CC(CC(C4)C2)C3)cc1 (stereo unspecified) | inactive
Nc1ccc2nc3ccc(N)cc3[n+](-c3ccccc3)c2c1 | inactive
Cc1ccc(/C=N\NC2c3cc(Cl)ccc3Nc3nc(O)nc(C)c32)cc1 (stereo unspecified) | inactive
COc1cc([C@@H]2c3cc4c(cc3[C@H](OC3OC5COC(C(C)C)OC5C(O)C3O)C3COC(=O)[C@@H]32)OCO4)cc(OC)c1OC (stereo partly specified) | inactive
CC(=O)OCC1OC(N2C(=S)N[C@H]([C@@H](O)[C@H](O)[C@H](O)CO)[C@H]2O)C(OC(C)=O)C(OC(C)=O)C1OC(C)=O (stereo partly specified) | inactive
CN(C)CCNC(=O)c1ccc(Cl)c2c(Nc3ccc(S(=O)(=O)N=C(N)N)cc3)c3ccccc3nc12 | inactive
Cc1c(C(=O)O)oc2ccc([N+](=O)[O-])cc12 | inactive
O=c1ccc2ccccc2o1 [COUMARIN] | inactive
N=c1oc2cc(O)ccc2cc1C(=O)Nc1ccccn1 | inactive
CC(=O)C(CN(C(C)C)C(C)C)C(c1ccccc1)c1c(O)c2ccccc2oc1=O (stereo unspecified) | inactive
CC(C)(C)c1ccc(CN2CCN(C(c3ccccc3)c3ccc(Cl)cc3)CC2)cc1 (stereo unspecified) | inactive
CCCCCC(/C=N/Nc1ccccc1)C(O)(C(F)(F)F)C(F)(F)F (stereo unspecified) | inactive
CC1(Cc2cc3c(cc2C2(c4ccc([N+](=O)[O-])cc4)OCCO2)OCO3)OCCO1 | inactive
O=c1c2c([nH]c3cc4c(cc13)OCO4)-c1ccccc1C2 | inactive
NCCC(=O)N[C@H](Cc1cc(O)c(O)c(SCC(NC(=O)CC[C@H](N)C(=O)O)C(=O)NCC(=O)O)c1)C(=O)O (stereo partly specified) | inactive
N#C/C(=C/NC(=S)NCc1ccccc1)C(N)=O | inactive
N#C/C(C(=O)Nc1ccc(Cl)cc1)=C(/N)N1CCOCC1 | inactive
COC(=O)N1C=CC2=C(C)C3Nc4ccccc4C3C(C)=C2C1 (stereo unspecified) | inactive
CCOC(=O)c1c(N2CCOCC2)[nH]c(=O)c(C(c2c(Cl)cccc2Cl)c2c(O)c(C(=O)OCC)c(N3CCOCC3)[nH]c2=O)c1O | inactive
COC(=O)C1=CC2C=CC(C1C(=O)OC)C1C(C(=O)OC)=C(C(=O)OC)C(C(=O)OC)=C(C(=O)OC)C21OC (stereo unspecified) | inactive
CC(=O)Oc1cc(Cl)c(C)c2c1[C@H]1CC[C@]3(C)[C@@H](OC(C)=O)CC[C@H]3[C@@H]1CC2 | inactive
CC(C)=CCc1c(O)ccc2c1OC1c3ccc(O)c(CC=C(C)C)c3OCC21 (stereo unspecified) | inactive
O=C1CC(c2ccccc2Cl)Oc2ccccc21 (stereo unspecified) | inactive
COc1cc2c[n+](C)c3c(c2cc1OC)Cc1cc2c(cc1-3)OCO2 | inactive
Br[Se]c1ccccn1 | inactive
COc1cccc2c1NC(=O)Cc1c-2[nH]c2ccccc12 | inactive
COc1cc(CCN(C)C)cc(OC)c1OC | inactive
NNC(=O)Cn1c2ccc(Br)cc2c2nc3ccccc3nc21 | inactive
CCOc1ccc(NC2=CC(=O)C(=O)c3ccccc32)cc1 | inactive
O=S1(=O)N2CN3CN(C2)CN1C3 | inactive
Cc1ccc2c(=O)c(C(=O)NNC(=S)NC3CCCCC3)c[nH]c2n1 | inactive
COc1ccc(C2=C(Cl)c3cc(OC)c(OC)cc3C2)cc1OC | inactive
COC(=O)C(C(=O)C(=O)NC1Nc2ccc(C)cc2S1)c1nc2ccc(Cl)cc2nc1O (stereo unspecified) | inactive
CCOC(=O)c1csc(-c2nc(CCNC(=O)c3ccccc3)sc2Cl)n1 | inactive
